- SYSTEM UNDER TEST: T1, Mouse/Human Ang-2 StuI chimeric molecule (mouse; human, UniProt O35608 19-496)
- T1 construct: also called M/H Stul 310-496
- T1 chain: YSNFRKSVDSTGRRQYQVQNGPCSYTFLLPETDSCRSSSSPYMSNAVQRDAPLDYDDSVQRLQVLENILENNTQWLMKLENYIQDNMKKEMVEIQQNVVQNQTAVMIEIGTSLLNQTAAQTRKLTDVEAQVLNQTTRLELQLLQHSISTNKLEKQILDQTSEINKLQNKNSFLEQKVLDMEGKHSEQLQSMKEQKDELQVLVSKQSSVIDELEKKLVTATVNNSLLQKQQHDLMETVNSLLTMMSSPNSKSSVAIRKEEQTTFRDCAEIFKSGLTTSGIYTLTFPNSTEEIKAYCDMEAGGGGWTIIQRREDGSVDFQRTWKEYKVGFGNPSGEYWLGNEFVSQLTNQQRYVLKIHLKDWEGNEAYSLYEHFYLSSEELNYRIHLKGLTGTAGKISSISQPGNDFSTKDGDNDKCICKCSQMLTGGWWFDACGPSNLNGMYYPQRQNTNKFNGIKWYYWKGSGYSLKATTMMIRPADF
- EXPERIMENT DESCRIPTION: ELISA
REPORTED ENDPOINT: % of binding to human Ang-2 (%)
The reply should contain only the number, in %.

Need % of binding to human Ang-2 of mAb 5.86.1 (antibody, V domains shown, Human hybridoma IgG (XenoMouse); also called x5.86) VH: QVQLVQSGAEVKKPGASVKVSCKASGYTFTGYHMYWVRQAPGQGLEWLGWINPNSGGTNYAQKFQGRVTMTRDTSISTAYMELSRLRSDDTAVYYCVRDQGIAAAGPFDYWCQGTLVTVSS VL: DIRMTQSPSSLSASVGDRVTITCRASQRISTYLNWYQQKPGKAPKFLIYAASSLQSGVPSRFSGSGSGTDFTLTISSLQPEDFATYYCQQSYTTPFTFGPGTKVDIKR , thanks. 100
